assay: qHTS assay to identify small molecule antagonists of the retinoic acid receptor (RAR) signaling pathway (AID 1159552; note: nearly all actives have a fitted effect of over 50% in size); conditions: C3RL4 RARE luciferase reporter, retinol-stimulated, 6 h; series mostly up to 92.4 µM
Results filed as inconclusive are left out. The source made the active and inactive calls. Calls come from the whole dose curve; as a rule, active = well fitted inhibition curve with a large enough effect in the repeat runs; inconclusive = weak or mixed curves, or effect the other way; inactive = no such curve, though single readings can be large or run the other way.
Outcome field: choose from active, inactive

Q. Just curious, what result did COP(=O)(CCC(=O)NCO)OC get here?
A. inactive

Q. Just curious, what result did CCCCCCCCCC[N+](C)(C)CCCCCCCCCC get here?
A. active

Q. Just curious, what result did CC(=O)OC1(c2ccccc2)CCN(CCc2ccccc2)CC1 get here?
A. inactive

Q. Just curious, what result did Cn1cc(C2=C(c3cn(C4CCN(Cc5ccccn5)CC4)c4ccccc34)C(=O)NC2=O)c2ccccc21 get here?
A. inactive

Q. Just curious, what result did Nc1ccc([N+](=O)[O-])cc1Cl get here?
A. inactive

Q. Just curious, what result did O=c1[nH]c2ccccc2n1CCCN1CCC(n2c(=O)[nH]c3cc(Cl)ccc32)CC1 get here?
A. inactive

Q. Just curious, what result did N#C/C=C/C#N get here?
A. inactive

Q. Just curious, what result did O=[N+]([O-])c1ccc2ccc3cccc4ccc1c2c34 get here?
A. inactive

Q. Just curious, what result did O=[N+]([O-])c1cc(Cl)ccc1Cl get here?
A. inactive

Q. Just curious, what result did Cl/C=C\CCl get here?
A. inactive

Q. Just curious, what result did CC(C)(C)OO get here?
A. inactive

Q. Just curious, what result did N#CCCSCCC#N get here?
A. inactive

Q. Just curious, what result did O=C(O)COc1nc(Cl)c(Cl)cc1Cl get here?
A. inactive

Q. Just curious, what result did Fc1cccc(Cl)c1CCl get here?
A. inactive

Q. Just curious, what result did [CH3][Hg][Cl] get here?
A. inactive

Q. Just curious, what result did N#Cc1ccc(O)cc1 get here?
A. inactive

* * *

experiment: Human pregnane X receptor (PXR) small molecule agonists, qHTS cell viability counter screen (AID 1346977); details: PXR-Luc HepG2 viability, CellTiter-Fluor, 24 h; series mostly up to 92.4 µM; note: nearly all actives have a fitted effect of over 50% in size
Records with an inconclusive call do not appear. Activity calls are given as the source filed them. The call rests on the fitted dose curve; in most records, active means well fitted cell-killing curve with a large enough effect in the repeat runs; inconclusive means weak or mixed curves, or effect the other way; inactive means flat fitted curve, though single readings scatter.
Outcome field: choose from active, inactive

Q. Just curious, what result did c1ccc2cc3c(cc2c1)-c1cccc2cccc-3c12 get here?
A. inactive

Q. Just curious, what result did CC(C)CC(C)Nc1ccc(Nc2ccccc2)cc1 (stereo not drawn) get here?
A. active

Q. Just curious, what result did CC(C)[C@H](C(=O)O[C@H](C#N)c1cccc(Oc2ccccc2)c1)c1ccc(Cl)cc1 get here?
A. inactive

Q. Just curious, what result did ClC1=C(Cl)[C@]2(Cl)[C@@H]3[C@@H](Cl)[C@H](Cl)C[C@@H]3[C@@]1(Cl)C2(Cl)Cl get here?
A. inactive

Q. Just curious, what result did CC[C@H]1C[C@@H]2C[C@H]3c4[nH]c5ccc(OC)cc5c4CCN(C2)[C@@H]13 get here?
A. active

Q. Just curious, what result did COc1ccc(OC)c(CC(C)N)c1 (stereo not drawn) get here?
A. inactive

Q. Just curious, what result did CCCN(CCC)c1c([N+](=O)[O-])cc(S(N)(=O)=O)cc1[N+](=O)[O-] get here?
A. active

Q. Just curious, what result did CCC[CH2][Sn]([CH2]CCC)([CH2]CCC)[O]C(=O)c1ccccc1 get here?
A. active

Q. Just curious, what result did CC(=[OH+])/C=C(/C)[O-].CC(=[OH+])/C=C(\C)[O-].CC(=[OH+])/C=C(\C)[O-].[Fe] get here?
A. inactive

Q. Just curious, what result did Oc1ccc2ccc3cccc4ccc1c2c34 get here?
A. inactive

Q. Just curious, what result did O=[N+]([O-])c1cc(C(F)(F)F)c(Cl)c([N+](=O)[O-])c1Cl get here?
A. active

Q. Just curious, what result did C1CCC2CCCCC2C1 (stereo not drawn) get here?
A. inactive

Q. Just curious, what result did ClC1=C(Cl)[C@]2(Cl)[C@@H]3[C@@H](Cl)[C@@H](Cl)C[C@@H]3[C@@]1(Cl)C2(Cl)Cl get here?
A. inactive

Q. Just curious, what result did C[C@H]1CC[C@@H]2[C@@H](C)[C@H]3[C@H](C[C@H]4[C@@H]5CC=C6CC(O[C@@H]7O[C@H](CO)[C@H](O)[C@H](O[C@@H]8O[C@H](CO)[C@@H](O)[C@H](O)[C@H]8O)[C@H]7O[C@H]7O[C@@H](C)[C@H](O)[C@@H](O)[C@H]7O)CC[C@]6(C)[C@H]5CC[C@]34C)N2C1 (stereo partly drawn) get here?
A. active

Q. Just curious, what result did CCS(=O)(=O)c1cccnc1S(=O)(=O)NC(=O)Nc1nc(OC)cc(OC)n1 get here?
A. inactive

Q. Just curious, what result did O=[N+]([O-])c1cc(Cl)ccc1Cl get here?
A. inactive

Q. Just curious, what result did O=C(CBr)c1ccc(O)cc1 get here?
A. inactive

Q. Just curious, what result did COC(=O)N(C(=O)N1CO[C@@]2(C(=O)OC)Cc3cc(Cl)ccc3C2=N1)c1ccc(OC(F)(F)F)cc1 get here?
A. inactive

* * *

assay: qHTS assay to identify small molecule antagonists of the vitamin D receptor (VDR) signaling pathway - cell viability counter screen (AID 743225); details: VDR-bla HEK293T viability, CellTiter-Glo luminescence, 16 h; series mostly up to 61 µM; note: nearly all actives have a fitted effect of over 50% in size
Inconclusive results are not listed. The source made the active and inactive calls. The call rests on the fitted dose curve; in most records, active means well fitted cell-killing curve with a large enough effect in the repeat runs; inconclusive means weak or mixed curves, or effect the other way; inactive means no such curve, though single readings can be large or run the other way.
Outcome field: choose from active, inactive

Q. Just curious, what result did OC(c1ccc(Cl)cc1)(c1ccc(Cl)cc1)C(Cl)(Cl)Cl get here?
A. inactive

Q. Just curious, what result did CCN(CC)C(=S)[S-].CCN(CC)C(=S)[S-].[Zn+2] get here?
A. active

Q. Just curious, what result did C[C@H]1CC[C@@H]2[C@@H](C)[C@H]3[C@H](C[C@H]4[C@@H]5CC=C6CC(O[C@@H]7O[C@H](CO)[C@H](O)[C@H](O[C@@H]8O[C@H](CO)[C@@H](O)[C@H](O)[C@H]8O)[C@H]7O[C@H]7O[C@@H](C)[C@H](O)[C@@H](O)[C@H]7O)CC[C@]6(C)[C@H]5CC[C@]34C)N2C1 (stereo not given in full) get here?
A. inactive

Q. Just curious, what result did Cc1cc(C)c(C2=C(OC(=O)CC(C)(C)C)C3(CCCC3)OC2=O)c(C)c1 get here?
A. inactive

Q. Just curious, what result did CCOP(=S)(OCC)OC(Cl)C(Cl)(Cl)Cl (stereo not given) get here?
A. inactive

Q. Just curious, what result did CC(C)[C@H](C(=O)OC(C#N)c1cccc(Oc2ccccc2)c1)c1ccc(OC(F)F)cc1 (stereo not given in full) get here?
A. inactive

Q. Just curious, what result did Cc1ccc(OP(=O)(Oc2ccccc2)Oc2ccccc2)cc1 get here?
A. inactive

Q. Just curious, what result did CC(C)CC(C)N (stereo not given) get here?
A. inactive

Q. Just curious, what result did CCCCCCCCCC[N+](C)(C)CCCCCCCCCC get here?
A. active

Q. Just curious, what result did Clc1ccc(-c2ccc(Cl)c(Cl)c2Cl)c(Cl)c1Cl get here?
A. inactive

Q. Just curious, what result did NNC(=O)c1ccccc1 get here?
A. inactive

Q. Just curious, what result did Cc1cc(SCc2sc(-c3ccc(C(F)(F)F)c(F)c3)nc2C)ccc1OCC(=O)O get here?
A. active

Q. Just curious, what result did O=c1[nH]c2ccccc2n1C1CCN(CCCC(c2ccc(F)cc2)c2ccc(F)cc2)CC1 get here?
A. active

Q. Just curious, what result did O=C(O)C1C2CCC(O2)C1C(=O)O (stereo not given) get here?
A. inactive

Q. Just curious, what result did CC(=O)[O-].CC(=O)[O-].[Hg+2] get here?
A. active

Q. Just curious, what result did CC(=O)/C=C/c1ccc2c(c1)OCO2 get here?
A. inactive

Q. Just curious, what result did CCOCn1c(-c2ccc(Cl)cc2)c(C#N)c(Br)c1C(F)(F)F get here?
A. active

Q. Just curious, what result did CSCCCN=C=S get here?
A. inactive

Q. Just curious, what result did CC(Cc1ccc(C(C)(C)C)cc1)CN1C[C@@H](C)O[C@@H](C)C1 (stereo not given in full) get here?
A. inactive

Q. Just curious, what result did N#C/C=C/C#N get here?
A. inactive

Q. Just curious, what result did CC(C)CCCCCOC(=O)c1ccccc1C(=O)OCCCCCC(C)C get here?
A. inactive

Q. Just curious, what result did Cc1c(Cl)c(=O)oc2cc(OP(=O)(OCCCl)OCCCl)ccc12 get here?
A. inactive

Q. Just curious, what result did C[C@]12CC[C@@H]3c4ccc(OC(=O)N(CCCl)CCCl)cc4CC[C@H]3[C@@H]1CC[C@@H]2O get here?
A. inactive

Q. Just curious, what result did O=[N+]([O-])c1cc(C(F)(F)F)c(Cl)c([N+](=O)[O-])c1Cl get here?
A. active

Q. Just curious, what result did Clc1ccc(C(c2ccc(Cl)cc2)C(Cl)(Cl)Cl)cc1 get here?
A. inactive

Q. Just curious, what result did [Cl][Sb]([Cl])[Cl] get here?
A. inactive

Q. Just curious, what result did C=CC(=O)OCC(COC(=O)C=C)(COC(=O)C=C)COC(=O)C=C get here?
A. active

Q. Just curious, what result did CC1CCC(C(C)C)C(OC(=O)c2ccccc2N)C1 (stereo not given) get here?
A. active

Q. Just curious, what result did Nc1ccccc1C(=O)OC/C=C/c1ccccc1 get here?
A. active

Q. Just curious, what result did O=[N+]([O-])c1ccc(Oc2ccc(C(F)(F)F)cc2[N+](=O)[O-])cc1 get here?
A. inactive

Q. Just curious, what result did CCC(C)(C)C(=O)OC1=C(c2ccc(Cl)cc2Cl)C(=O)OC12CCCCC2 get here?
A. inactive

Q. Just curious, what result did CN(C)[C@@H]1C(=O)C(C(N)=O)=C(O)[C@@]2(O)C(=O)C3=C(O)c4c(O)ccc(Cl)c4[C@@](C)(O)[C@H]3C[C@@H]12 get here?
A. inactive

Q. Just curious, what result did CC(C)(C)c1cc([N+](=O)[O-])cc(C(C)(C)C)c1O get here?
A. active

Q. Just curious, what result did CC[C@H]1C[C@@H]2C[C@H]3c4[nH]c5ccc(OC)cc5c4CCN(C2)[C@@H]13 get here?
A. inactive

Q. Just curious, what result did S=C=Nc1cccc2ccccc12 get here?
A. inactive

Data credit: PubChem BioAssay (Tox21)
